For each record, write down the corresponding inhibition.
- system name: Serine/threonine-protein kinase BRSK1 (Homo sapiens) (UniProt Q8TDC3);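 also: each value is a mean percent inhibition of BRSK1 kinase activity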
- Sequence (whole entry): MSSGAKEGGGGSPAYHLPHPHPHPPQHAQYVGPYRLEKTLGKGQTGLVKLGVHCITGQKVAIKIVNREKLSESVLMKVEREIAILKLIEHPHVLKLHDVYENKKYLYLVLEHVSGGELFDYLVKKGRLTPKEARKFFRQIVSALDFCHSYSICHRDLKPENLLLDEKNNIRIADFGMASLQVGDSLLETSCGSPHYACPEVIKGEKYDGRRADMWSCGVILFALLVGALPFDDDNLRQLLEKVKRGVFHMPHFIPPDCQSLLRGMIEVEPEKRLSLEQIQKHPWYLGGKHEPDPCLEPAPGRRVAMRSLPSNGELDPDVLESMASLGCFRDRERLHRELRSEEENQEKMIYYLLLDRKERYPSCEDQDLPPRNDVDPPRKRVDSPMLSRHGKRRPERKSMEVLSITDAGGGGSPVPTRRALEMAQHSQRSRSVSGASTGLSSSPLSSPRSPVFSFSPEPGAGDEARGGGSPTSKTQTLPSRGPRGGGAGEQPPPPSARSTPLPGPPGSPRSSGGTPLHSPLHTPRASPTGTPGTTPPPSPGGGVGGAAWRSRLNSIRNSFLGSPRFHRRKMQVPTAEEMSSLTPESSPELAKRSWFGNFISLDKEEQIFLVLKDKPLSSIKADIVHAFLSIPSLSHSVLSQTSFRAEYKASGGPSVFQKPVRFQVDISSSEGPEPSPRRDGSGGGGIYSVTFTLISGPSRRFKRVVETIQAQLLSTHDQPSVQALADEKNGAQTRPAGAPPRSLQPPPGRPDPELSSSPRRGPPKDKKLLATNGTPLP
- run conditions: at 1 µM
Write down the numeric answer in % and omit the unit.

Query: Quick one: inhibition for CC1=C(C(=O)Nc2cc(Cl)c3[nH]ncc3c2)C(c2ccc(C(F)(F)F)cc2)CC(=O)N1 (stereo not given) ?
Result: 3.03

Query: May I ask what inhibition has been recorded for `O=C(O[C@H]1CN[C@H](C#Cc2cc3ncnc(Nc4ccc(Cc5ccccc5)cc4)c3s2)C1)N1CCOCC1` ?
Result: 2.86

Query: # get_value(readout='inhibition', item= `NS(=O)(=O)c1ccc(Nc2ncc(-c3ccccc3)o2)cc1` )
Result: 15.3

Query: Requested field: inhibition. Item: `CC(=O)NCc1cccc(C#Cc2cncnc2Nc2ccc(OCc3cccc(F)c3)c(Cl)c2)c1`
Result: 3.55

Query: If you can, please state the reported inhibition value of `CCc1nn2ncccc2c1-c1ccnc(NC2CC2)n1` .
Result: 1.03

Query: Would you kindly share the measured inhibition for `COc1cccc(-c2c[nH]c3c(N/N=C/c4ccncc4)ncnc23)c1` ?
Result: 21.4

Query: Value lookup for inhibition; key = `CNC(=O)c1cncc(/C=C/c2ccccc2Cl)c1`
Result: 8.62

Query: Name the reported inhibition value associated with the compound `CC(=O)Nc1cccc(C#Cc2cncnc2Nc2ccc(OCc3cccc(F)c3)c(Cl)c2)c1`
Result: 1.82

Query: So what does the record say about inhibition for `Nc1nc(-c2cccc(Cl)c2)c(-c2ccc3ncccc3n2)s1` ?
Result: 1.68

Query: Would you mind telling me what inhibition value was observed for `Nc1ncc(-c2cccc(S(N)(=O)=O)c2)c2scc(-c3ccc(F)c(Cl)c3)c12` ?
Result: 5.62

Query: What inhibition value was documented for this compound, `CCn1c(-c2nonc2N)nc2cnc(Oc3cccc(NC(=O)c4ccc(N(C)C)cc4)c3)cc21` ?
Result: 3.54

Query: Form field: reported inhibition of `N#Cc1c(NC(=O)CN2CCOCC2)sc2c1CCCC2`
Result: 1.52

Query: State the recorded inhibition for this entry: `COc1ccc(-c2cc3c(N)ncnc3o2)cc1`
Result: -0.34

Query: GET /values?readout=inhibition&item= `COC(=O)Nc1nc2ccc(S(=O)(=O)c3ccc(NC(=O)Nc4cc(C(F)(F)F)ccc4F)cc3)cc2[nH]1`
Result: 4.39

Query: What does the data say about its inhibition? Entry: `CN1CCC(n2cnc(-c3ccc(F)cc3)c2-c2ccnc(N)n2)CC1`
Result: 1.45

Query: Would you mind telling me what inhibition value was observed for `COc1cc2c(cc1Nc1nc(Nc3ccsc3C(N)=O)c3cc[nH]c3n1)N(C(=O)CN(C)C)CCC2(C)C` ?
Result: 6.36

Query: Return reported inhibition; argument: `COc1ccc(-c2oc3ncnc(N)c3c2-c2ccc(NC(=O)Nc3cc(C(F)(F)F)ccc3F)cc2)cc1`
Result: 11.7

Query: Which inhibition is reported for this compound? `Cc1ccc(O)cc1Nc1ccnc2cc(-c3ccccn3)ccc12`
Result: 5.99

Query: Need inhibition, item `CCn1c(-c2nonc2N)nc2c(C#CC(C)(C)O)ncc(OC3CCNCC3)c21`
Result: 10.5

Query: # input compound: `COc1ccc(CNC(=O)c2ccc(-c3cc(-c4nnc(C)o4)ccc3C)cc2)cc1` ; wanted: its inhibition
Result: 8.76

Query: Could you share which inhibition value was measured for `CCOc1ccc2c(-c3ccnc(Nc4cccc(C(F)(F)F)c4)n3)cnn2n1` ?
Result: 4.56

Query: Which inhibition is reported for this compound? `CS(=O)(=O)CCNCc1coc(-c2ccc3ncnc(Nc4ccc(OCc5ccccc5)cc4)c3c2)c1`
Result: -1.55

Query: Quick one: inhibition of `Cc1cccc2c1NC(=O)/C2=N\Nc1ccc(S(N)(=O)=O)cc1` ?
Result: 3.16

Query: What does the data say about its inhibition? Entry: `O=C(Nc1n[nH]c2cc(-c3ccc(F)cc3)ccc12)C1CC1`
Result: 26.2

Query: Tell me the measured inhibition of `Cc1ccc2c(-c3ccnc(Nc4ccccc4)n3)c(-c3ccc(F)cc3)nn2n1` , please.
Result: 1.77

Query: Fill blank: measured inhibition of the compound `O=S(=O)(CCNCc1ccc(-c2ccc3ncnc(Nc4ccc(OCc5cccc(F)c5)c(Cl)c4)c3c2)o1)c1ccccc1` is ____.
Result: 4.07

Query: # inhibition lookup, item `COc1cccc(-n2ncc3c(N/N=C/c4ccc(F)cc4)ncnc32)c1`
Result: 12.1

Query: Entry under review: `COc1cc(N2CCN(C(C)C)CC2)ccc1Nc1nc(Nc2ccc(F)cc2C(N)=O)c2cc[nH]c2n1` . Reported inhibition?
Result: -0.11

Query: Please report the recorded inhibition for `N#Cc1c(NC(=O)c2ccc(F)cc2)sc2c1CCCC2` .
Result: 1.17

Query: Fill in the blank: the reported inhibition of `Fc1ccc(-c2cc(-c3c[nH]nc3-c3ccccn3)ccn2)cc1` is ____.
Result: 0.81

Query: Entry under review: `CCn1cc(-c2ccnc3[nH]ccc23)c(-c2cccc(NC(=O)Nc3ccc(OCc4ccccc4)cc3)c2)n1` . Reported inhibition?
Result: 3.32

Query: I'd like to know its inhibition. The compound in question is `COc1ccc(-c2cc(-c3c[nH]nc3-c3ccccn3)ccn2)cc1`
Result: 2.6

Query: Reported inhibition, compound `COc1ccc2c(-c3ccnc(Nc4cccc(OC(F)(F)F)c4)n3)cnn2n1` : ____
Result: 3.33

Query: Need inhibition of `CCCN1CCC(c2ccc(Nc3nc(Nc4cc(F)ccc4C(N)=O)c4cc[nH]c4n3)c(OC)c2)CC1` , thanks.
Result: 2.49

Query: Item under review: `FC(F)(F)c1cccc(-c2nn3ncccc3c2-c2ccnc(Nc3ccc4c(c3)OCCO4)n2)c1` . Reported inhibition?
Result: 2.81

The values you see were collected from ChEMBL document CHEMBL1961873.
